molecular target: full-length beta-Catenin (Uniprot ID P35222) (Homo sapiens, UniProt P35222); construct: 10 nM full-length beta-Catenin (Uniprot ID P35222); assay: Fluorescence polarization IC50 (beta-catenin / 5FAM-TCF4 10-53 competition); assay type: binding; conditions: Table E2-1; read-out: beta-Catenin FP IC50
Sequence (P35222 whole entry): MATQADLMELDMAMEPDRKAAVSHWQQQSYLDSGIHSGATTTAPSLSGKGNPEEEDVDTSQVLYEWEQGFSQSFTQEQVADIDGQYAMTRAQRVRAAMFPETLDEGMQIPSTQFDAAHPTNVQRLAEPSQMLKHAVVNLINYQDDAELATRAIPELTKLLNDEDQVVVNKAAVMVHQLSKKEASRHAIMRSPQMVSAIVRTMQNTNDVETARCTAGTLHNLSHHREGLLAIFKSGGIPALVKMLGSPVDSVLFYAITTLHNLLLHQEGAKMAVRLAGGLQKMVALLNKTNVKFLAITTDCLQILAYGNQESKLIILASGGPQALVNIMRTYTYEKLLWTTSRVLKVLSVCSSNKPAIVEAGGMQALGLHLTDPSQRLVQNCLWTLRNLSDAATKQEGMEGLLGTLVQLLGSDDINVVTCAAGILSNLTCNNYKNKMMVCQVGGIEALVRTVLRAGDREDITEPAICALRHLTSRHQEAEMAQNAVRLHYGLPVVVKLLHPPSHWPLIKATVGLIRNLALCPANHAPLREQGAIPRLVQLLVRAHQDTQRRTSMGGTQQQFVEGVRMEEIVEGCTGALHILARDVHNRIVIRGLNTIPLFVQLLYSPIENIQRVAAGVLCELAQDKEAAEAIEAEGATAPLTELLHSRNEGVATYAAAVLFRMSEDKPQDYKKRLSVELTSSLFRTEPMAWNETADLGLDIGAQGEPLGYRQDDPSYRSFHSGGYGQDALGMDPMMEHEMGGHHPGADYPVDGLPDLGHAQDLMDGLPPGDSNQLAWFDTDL

molecule	assayed.target	IC50, µM
CC[C@H](C)[C@H](NC(=O)[C@H](CC(=O)O)NC(=O)[C@H](C)NC(C)=O)C(=O)N[C@]1(C)CCN(C)C(=O)OCC=CCCCCC[C@@](C)(C(=O)N[C@@H](Cc2ccccc2)C(=O)N[C@@H](Cc2c[nH]c3ccccc23)C(=O)N[C@@H](Cc2c[nH]cn2)C(N)=O)NC(=O)[C@H](CCC(N)=O)NC(=O)[C@H](Cc2ccccc2)NC(=O)[C@H](C)NC(=O)[C@H](C)NC(=O)[C@H](CCC(=O)O)NC(=O)[C@H](CC(=O)O)NC1=O [I-66]	full-length beta-Catenin (Uniprot ID P35222) (Homo sapiens, UniProt P35222)	1.09
CC(=O)N1CCC[C@]12CC=CCCCC1(CCCC=CCCCCCC[C@@](C)(C(=O)N[C@@H](Cc3ccccc3)C(=O)N[C@@H](Cc3c[nH]c4ccccc34)C(=O)N[C@@H](CCC(N)=O)C(N)=O)NC(=O)[C@H](C)NC(=O)[C@H](Cc3ccccc3)NC(=O)[C@H](C)NC(=O)[C@H](C)NC(=O)[C@H](CC(=O)O)NC(=O)[C@H](CC(=O)O)NC1=O)NC(=O)[C@H](C)NC(=O)[C@H](CC(=O)O)NC2=O (stereo partly shown) [I-287]	full-length beta-Catenin (Uniprot ID P35222) (Homo sapiens, UniProt P35222)	4.95
CC(=O)N1CCC[C@]12CC=CCCCC1(CCCC=CCCCCCC[C@@](C)(C(=O)N[C@@H](Cc3ccccc3F)C(=O)N[C@@H](Cc3c[nH]c4ccccc34)C(=O)N[C@@H](CCC(N)=O)C(N)=O)NC(=O)[C@H](C(C)C)NC(=O)[C@H](Cc3ccccc3)NC(=O)[C@H](C)NC(=O)[C@H](C)NC(=O)[C@H](CC(=O)O)NC(=O)[C@H](CC(=O)O)NC1=O)NC(=O)[C@H](C)NC(=O)[C@H](CC(=O)O)NC2=O (stereo partly shown) [I-318]	full-length beta-Catenin (Uniprot ID P35222) (Homo sapiens, UniProt P35222)	4.63
CC(=O)N1CCC[C@]12CC=CCCCC1(CCCC=CCCCCCC[C@@](C)(C(=O)N[C@@H](Cc3ccccc3)C(=O)N[C@@H](Cc3c[nH]c4ccccc34)C(=O)N[C@@H](CCC(N)=O)C(N)=O)NC(=O)[C@H](C(C)C)NC(=O)[C@H](Cc3ccccc3)NC(=O)[C@H](C)NC(=O)[C@H](C)NC(=O)[C@H](CCC(=O)O)NC(=O)[C@H](CC(N)=O)NC1=O)NC(=O)[C@H](C)NC(=O)[C@H](CC(=O)O)NC2=O (stereo partly shown)	full-length beta-Catenin (Uniprot ID P35222) (Homo sapiens, UniProt P35222)	5
CC(=O)N1CCC[C@]12CC=CCCCC1(CCCC=CCCCCCC[C@@](C)(C(=O)N[C@@H](Cc3ccccc3F)C(=O)N[C@@H](Cc3c[nH]c4ccccc34)C(=O)N[C@@H](CCC(N)=O)C(N)=O)NC(=O)[C@H](C(C)C)NC(=O)[C@H](Cc3ccccc3)NC(=O)[C@H](C)NC(=O)[C@H](C)NC(=O)[C@H](CC(=O)O)NC(=O)[C@H](CC(=O)O)NC1=O)NC(=O)[C@H](C)NC(=O)[C@H](CC(=O)O)NC2=O (stereo partly shown) [I-319]	full-length beta-Catenin (Uniprot ID P35222) (Homo sapiens, UniProt P35222)	1.42
CC(=O)N1CCC[C@]12CC=CCCCC1(CCCC=CCCCCCC[C@@](C)(C(=O)N[C@@H](Cc3ccccc3)C(=O)N[C@@H](Cc3cccc4ccc(F)cc34)C(=O)N[C@@H](CCC(N)=O)C(N)=O)NC(=O)[C@H](C(C)C)NC(=O)[C@H](Cc3ccccc3)NC(=O)[C@H](C)NC(=O)[C@H](C)NC(=O)[C@H](CC(=O)O)NC(=O)[C@H](CC(=O)O)NC1=O)NC(=O)[C@H](C)NC(=O)[C@H](CC(=O)O)NC2=O (stereo partly shown)	full-length beta-Catenin (Uniprot ID P35222) (Homo sapiens, UniProt P35222)	5
CC(=O)N[C@@H](Cc1ccccc1)C(=O)N[C@@H](CC(=O)O)C(=O)N[C@@H](C)C(=O)N[C@]1(C)CCCCCCC=CCOC(=O)N2CC[C@@](C(=O)N[C@@H](Cc3ccccc3)C(=O)N[C@@H](Cc3c[nH]c4ccccc34)C(=O)N[C@@H](CCC(N)=O)C(N)=O)(C2)NC(=O)[C@H](C(C)C)NC(=O)[C@H](Cc2ccc(F)cc2)NC(=O)[C@H](C)NC(=O)[C@H](C)NC(=O)[C@H](CC(=O)O)NC(=O)[C@H](CC(=O)O)NC1=O	full-length beta-Catenin (Uniprot ID P35222) (Homo sapiens, UniProt P35222)	5
CC(=O)N1CCC[C@]12CC=CCCCC1(CCCC=CCCCCCC[C@@](C)(C(=O)N[C@@H](Cc3cccc4ccccc34)C(=O)N[C@@H](Cc3c[nH]c4ccccc34)C(=O)N[C@@H](CCC(N)=O)C(N)=O)NC(=O)[C@H](C(C)C)NC(=O)[C@H](Cc3ccccc3)NC(=O)[C@H](C)NC(=O)[C@H](C)NC(=O)[C@H](CC(=O)O)NC(=O)[C@H](CC(=O)O)NC1=O)NC(=O)[C@H](C)NC(=O)[C@H](CC(=O)O)NC2=O (stereo partly shown)	full-length beta-Catenin (Uniprot ID P35222) (Homo sapiens, UniProt P35222)	3.43
CC[C@H](C)[C@@H]1NC(=O)[C@H](CC(=O)O)NC(=O)[C@]2(CC=CCCCC3(CCCC=CCCCCCC[C@@](C)(C(=O)N[C@@H](Cc4ccccc4)C(=O)N[C@@H](Cc4c[nH]c5ccccc45)C(=O)N[C@@H](CCC(N)=O)C(N)=O)NC(=O)[C@H](CCC(N)=O)NC(=O)[C@H](Cc4ccccc4)NC(=O)[C@H](C)NC(=O)[C@H](C)NC(=O)[C@H](CCC(=O)O)NC(=O)[C@H](CC(=O)O)NC3=O)NC1=O)CCCN2C(C)=O (stereo partly shown) [I-180]	full-length beta-Catenin (Uniprot ID P35222) (Homo sapiens, UniProt P35222)	0.056
CC(=O)N1CCC[C@]12CC=CCCCC1(CCCC=CCCCCCC[C@@](C)(C(=O)N[C@@H](Cc3ccccc3)C(=O)N[C@@H](Cc3ccc4ccccc4n3)C(=O)N[C@@H](CCC(N)=O)C(N)=O)NC(=O)[C@H](C(C)C)NC(=O)[C@H](Cc3ccccc3)NC(=O)[C@H](C)NC(=O)[C@H](C)NC(=O)[C@H](CCC(=O)O)NC(=O)[C@H](CC(=O)O)NC1=O)NC(=O)[C@H](C)NC(=O)[C@H](CC(=O)O)NC2=O (stereo partly shown)	full-length beta-Catenin (Uniprot ID P35222) (Homo sapiens, UniProt P35222)	2.27
